experimental_system: GlcNAc(b1-4)Gal(b1-4)GlcNAc
assay_protocol: glycan array binding signal (z-score within array); higher = stronger binding
measurement_context: glycan notation: IUPAC condensed, linker removed
The entries come from a sample that favours the strongest signals as a whole.
measure: glycan array binding signal (z-score)
Response field accepts a number only; no unit should be typed.

FBG5 (Homo sapiens), Q8NI29 (protein) MGASVSRGRAARVPAPEPEPEEALDLSQLPPELLLVVLSHVPPRTLLGRCRQVCRGWRALVDGQALWLLILARDHGATGRALLHLARSCQSPARNARPCPLGRFCARRPIGRNLIRNPCGQEGLRKWMVQHGGDGWVVEENRTTVPGAPSQTCFVTSFSWCCKKQVLDLEEEGLWPELLDSGRIEICVSDWWGARHDSGCMYRLLVQLLDANQTVLDKFSAVPDPIPQWNNNACLHVTHVFSNIKMGVRFVSFEHRGQDTQFWAGHYGARVTNSSVIVRVRLS ... -0.095

Would you kindly look at the next entry?
For Intelectin-1a (Mus musculus) (protein) AEWSHPQFEKAEENLDTNRWGNSFFSSLPRSCKEIKQEHTKAQDGLYFLRTKNGVIYQTFCDMTTAGGGWTLVASVHENNMRGKCTVGDRWSSQQGNRADYPEGDGNWANYNTFGSAEAATSDDYKNPGYFDIQAENLGIWHVPNKSPLHNWRKSSLLRYRTFTGFLQHLGHNLFGLYKKYPVKYGEGKCWTDNGPALPVVYDFGDARKTASYYSPSGQREFTAGYVQFRVFNNERAASALCAGVRVTGCNTEHHCIGGGGFFPEGNPVQCGDFASFDWDGYGTHNGYSSSRKITEAAVLLFYR , what is its reported glycan array binding signal (z-score)?
-0.454
